# assay system: T1, HLA-DRB5 molecule (DRB5*0101) (human)
# T1 construct: HLA class II heterodimer
# experiment description: competitive ELISA, tracer HA 306-318
readout kind: IC50 (nM)
Give the value in nM but do not write nM after it.

Reference set (3 entries):
KEFEETAKKVRRAIE (synthetic 15-mer) [survivin peptide 122-136] :: 447
ERMAEAGFIHCPTEN (synthetic 15-mer) [survivin peptide 36-50] :: 3800
FEELTLGEFLKLDRE (synthetic 15-mer) [survivin peptide 93-107] :: 529

Return reported IC50; argument: LKLDRERAKNKIAKE (synthetic 15-mer) [survivin peptide 102-116] 18

Value lookup for IC50; key = LSVKKQFEELTLGEF (synthetic 15-mer) [survivin peptide 87-101] 6000

IC50 for PDLAQCFFCFKELEG (synthetic 15-mer) [survivin peptide 52-66] ? 5350

Form field: reported IC50 of ISTFKNWPFLEGCAC (synthetic 15-mer) [survivin peptide 19-33] 3780

Would you mind telling me what IC50 value was observed for PAWQPFLKDHRISTF (synthetic 15-mer) [survivin peptide 8-22] ? 2190

What does the record list as IC50 for HRISTFKNWPFLEGC (synthetic 15-mer) [survivin peptide 17-31] ? 302

Reported IC50 for KKQFEELTLGEFLKL (synthetic 15-mer) [survivin peptide 90-104] : what is it? 280

Field request: IC50 | item: KQFEELTLGEFLKLD (synthetic 15-mer) [survivin peptide 91-105] 145

Requested field: IC50. Item: FCFKELEGWEPDDDP (synthetic 15-mer) [survivin peptide 59-73] 45000

# IC50 lookup, item QCFFCFKELEGWEPD (synthetic 15-mer) [survivin peptide 56-70] 20000

Consider the binder shown here: MGAPTLPPAWQPFLK (synthetic 15-mer) [survivin peptide 1-15] What is its recorded IC50? 8000

# get_value(readout='IC50', item= GEFLKLDRERAKNKI (synthetic 15-mer) [survivin peptide 99-113] ) 22
